meta.source: paper PMC2841147

# assayOverview: Plasma pharmacokinetics after inhalation (HPLC/MS/MS)
# Format: in vivo, human
# experimentalSetup: human, plasma, inhaled or intranasal, 87.5 ug, Day 1; inhaled 87.5 μg; plasma; geometric mean (CV%); N = 18

{"columns": ["smilesCode", "AUC(0-t) (ng·h/mL)"],
 "data": [
  ["COc1cccc(Nc2c(C(N)=O)cnc3c(C)cc(S(=O)(=O)c4cccc(C(=O)N(C)C)c4)cc23)c1", 0.0368]
]}

---

# assayOverview: Plasma pharmacokinetics after inhalation (HPLC/MS/MS)
# Type: in vivo, human
# experimentalSetup: human, plasma, inhaled, 87.5 μg; Day 1; median (range); read-out: Tmax

{"columns": ["compound", "Tmax [h]"],
 "data": [
  ["COc1cccc(Nc2c(C(N)=O)cnc3c(C)cc(S(=O)(=O)c4cccc(C(=O)N(C)C)c4)cc23)c1 [GSK256066]", 1]
]}
